I'd be grateful if you could share measured self-cleavage for these entries.
B1: LINE1-mini (parent)
chain: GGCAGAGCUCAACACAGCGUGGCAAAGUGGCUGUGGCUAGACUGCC

Variants of: B1
Experiment: self-cleavage, relative activity (ratio to wild type); higher = more cleavage; in vitro, sequencing; the parent is a self-cleaving ribozyme
// response body must contain only the number

Exercise: Annotate the variant GGCAGAGCUCAAGACAGCGUGGCAAAGUGGCUGUGGCUAGGCUGCC [C13G A41G] with its measured self-cleavage.
Key: 0.09

Exercise: Please supply the value of reported self-cleavage for the item GGCAGAGCUCAACACACCGUGGAAAAGUGGCUGUGGCUAGACUGCC [G17C C23A]
Key: 1.07

Exercise: Provide self-cleavage value for the following variant: GGCAGAGCUCAACCCAGCGCGGCAAAGUGGCUGUGGCUAGACUGCC [A14C U20C]
Key: 0.08

Exercise: Consider the variant GGCAGUGCUCAACAAAGCGUGGCAAAGUGGCUGUGGCUAGACUGCC [A6U C15A] . State its measured self-cleavage.
Key: 0.16

Exercise: Determine its reported self-cleavage: GGCAGAGCUCAACACAGCGUGGCUAAGUGGCGGUGGCUAGACUGCC [A24U U32G]
Key: 0.12

Exercise: Hello, please tell me recorded self-cleavage for this one: GGCAGAGCUCAACACAGCGUGGCAAAGUGGCAGUGGCUAGUCUGCC [U32A A41U]
Key: 0.13

Exercise: Assign self-cleavage to the following record: GGCAGAGCUCAACACAGCGUGGCAAAGUGGCUGUGGCUAGACUGUU [C45U C46U]
Key: 1.03

Exercise: Entry GGCAGAGCUCAACACAGCGUGGCCAAGUGGCUGUGGCUAGACUGAC [A24C C45A] needs its self-cleavage filled in; supply it.
Key: 0.16

Exercise: Find the measured self-cleavage of GGCAGAGCUCAACACAGCGUAGCAAAGUGGCUAUGGCUAGACUGCC [G21A G33A] and report it.
Key: 0.08

Exercise: // fetch self-cleavage given entry GGCAGAGCUCAACACACCGUGGCAAAGUGGCUGUGGCUAGACUGCU [G17C C46U]
Key: 0.5

Exercise: Return self-cleavage (reported value) for this variant: GCCAGAGCUCAACACAGCGUGGCAAAGUGGCUGUGGCUUGACUGCC [G2C A39U]
Key: 0.1

Exercise: Identify self-cleavage associated with the variant GGUAGAGCUCAACACAGCGUGGCAAAGAGGCUGUGGCUAGACUGCC [C3U U28A]
Key: 0.4

Exercise: State its self-cleavage: GGUAGAGCUCAACACAGCGUGGCAAAGUCGCUGUGGCUAGACUGCC [C3U G29C]
Key: 0.37

Exercise: Specify reported self-cleavage for the variant shown: GGCAGAGCUCAACACAGCGUGGCAAAGUGGCUCUGGCUAGACUGCG [G33C C46G]
Key: 0.05

Exercise: Quickly give me recorded self-cleavage for GGCAGAGCUCAACACAACGUGGCAAAGUGGCUGUGGCUAGCCUGCC [G17A A41C]
Key: 0.04

Exercise: Identify measured self-cleavage associated with GGCAGAGCUCAAUACAGCGUGGCAAAGUGGCUGUGGUUAGACUGCC [C13U C37U]
Key: 0.11

Exercise: Please give measured self-cleavage of the following entry: GGCAGAGCUCAACACAGCGUGGCAAAGUGGCUGUGGCUCGAAUGCC [A39C C42A]
Key: 0.1

Exercise: // fetch self-cleavage given entry GGCAGAGCUCAACACAGCGCUGCAAAGUGGCUGUGGCUAGACUGCC [U20C G21U]
Key: 0.45

Exercise: Name the recorded self-cleavage of the variant listed here: GGCAGAGUUCAACACAGCGUGGCAAAGUGGCUGUGGCUAGACUGAC [C8U C45A]
Key: 0.21

Exercise: Please report self-cleavage for the following variant: GGCUGAGCUCAACACAUCGUGGCAAAGUGGCUGUGGCUAGACUGCC [A4U G17U]
Key: 0.16

Exercise: Supply measured self-cleavage of GGCAGAGCUCAACAUAGCGUGGCAAAGUGGCUGUGCCUAGACUGCC [C15U G36C] in your reply.
Key: 0.06

Exercise: Supply recorded self-cleavage for GGCAGAGCUCAACACAGCGUGUCAAAGUGCCUGUGGCUAGACUGCC [G22U G30C] here.
Key: 2.28

Exercise: Tell me its self-cleavage given GGCAGAGCUCAACACACCGUGGCAAAGUGGCUGUGGCUAGACAGCC [G17C U43A] as the entry.
Key: 0.13

Exercise: Quote self-cleavage reported for GGCAGAGCUCAACACAGCGUCGCAAAGUGGCUGUGGCUAGUCUGCC [G21C A41U] please.
Key: 0.5

Exercise: Answer with the recorded self-cleavage of GGGAGAGCUCAACACAGCGUGGCAAAGUGGAUGUGGCUAGACUGCC [C3G C31A] only.
Key: 0.15

Exercise: Please report the measured self-cleavage for GGCAGAGCUCUACACAGCGUGGCAAAGUGGCGGUGGCUAGACUGCC [A11U U32G]
Key: 0.03

Exercise: Using known records, supply self-cleavage for GGCAGAGCUCAACACAGCGUGGCAAAGUGGCUGUGGCUAGUCUGCU [A41U C46U]
Key: 0.9

Exercise: Quote self-cleavage reported for GGCAGAGCUCAACACAGCAUGGCAAAGUGGCUGUGGCUCGACUGCC [G19A A39C] please.
Key: 0.75

Exercise: Tell us which self-cleavage value is on record for GGCAGAGCUCCACACAGCGUGGCAAAGUGGCUGUGGCUAGACUGCU [A11C C46U]
Key: 0.11

Exercise: Provide one value: measured self-cleavage of GGAAGAGCUCAACACAGCGUGGCAAAGUGGCUGUAGCUAGACUGCC [C3A G35A]
Key: 0.35

Exercise: For GGGAGAGCUCAACACAGCGUGGCAAAGUGGCUGUGGCUAGGCUGCC [C3G A41G] , write its self-cleavage.
Key: 0.09

Exercise: Quote self-cleavage reported for GGCAGAGCUCAACACCGCGUGGCAAAGUGGCUGUGGCUAGACUGCU [A16C C46U] please.
Key: 0.08

Exercise: Consider the variant GGCAGAUCUCAACACAGCGUGGCAAAGUGGCUGUGGCUAGACUCCC [G7U G44C] . State its measured self-cleavage.
Key: 0.13

Exercise: Identify measured self-cleavage corresponding to GGCAGAUCUCAACACAGCGUGGCAAAGUGGCUGUGGCAAGACUGCC [G7U U38A]
Key: 0.04

Exercise: Provide one value: measured self-cleavage of GGAAGAGCUCGACACAGCGUGGCAAAGUGGCUGUGGCUAGACUGCC [C3A A11G]
Key: 0.06

Exercise: Provide only the value of recorded self-cleavage for GGCAGAGCUCAACACAACGUGGCAAAGUGGCUGUGGCUAGUCUGCC [G17A A41U]
Key: 0.12

Exercise: // Input: GGCAGGGCUCAACACAGCGUGGCAAAGUGGCUGUGGCUAGUCUGCC [A6G A41U] . Output its self-cleavage only.
Key: 0.1

Exercise: Recall and state the measured self-cleavage for GGCAGGGCUCAACACUGCGUGGCAAAGUGGCUGUGGCUAGACUGCC [A6G A16U] .
Key: 0.06

Exercise: // Input: GGCAGAGCUCAGCACAGCGUGGCAAAGUGGCUGUGCCUAGACUGCC [A12G G36C] . Output its self-cleavage only.
Key: 0.04

Exercise: Specify measured self-cleavage for GGCAGAGCUCAACACAGCGUGGCCAAGUGGCUGUAGCUAGACUGCC [A24C G35A] .
Key: 0.09

Exercise: Please indicate self-cleavage recorded for GGAAGAGCUCAACACAGCGUGGCACAGUGGCUGUGGCUAGACUGCC [C3A A25C]
Key: 0.41

Exercise: // fetch self-cleavage given entry GGCAGAGCUCAACACAGCGUGACAAAGUGGCUGUGGCUACACUGCC [G22A G40C]
Key: 0.09

Exercise: Give self-cleavage for GGCAGAGCACAACACAGCGUGGCAAAGUGGCUGUGGCUAGAGUGCC [U9A C42G]
Key: 0.13

Exercise: Give me measured self-cleavage, please, for this variant: GGCAGAGCUCAACACAGCGUGGCAAAGUGGCAGUGGCUCGACUGCC [U32A A39C]
Key: 0.06

Exercise: Given GGCAGAGCUCAAUACAGCGUGGCAAAGUGGCUGUGGGUAGACUGCC [C13U C37G] , respond with its self-cleavage.
Key: 0.1

Exercise: Indicate the recorded self-cleavage value for this variant: GCCAGAGCUCAACACACCGUGGCAAAGUGGCUGUGGCUAGACUGCC [G2C G17C]
Key: 0.05

The reported numbers originate from the RNAGym collection of RNA variant scans (doi:10.7554/elife.90254).
